B1: OR4K15 (parent)
chain: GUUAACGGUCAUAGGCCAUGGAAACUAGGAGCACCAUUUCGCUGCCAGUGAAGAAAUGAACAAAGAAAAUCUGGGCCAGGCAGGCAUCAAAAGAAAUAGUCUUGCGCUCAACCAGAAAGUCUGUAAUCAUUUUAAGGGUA

Variants of: B1
TEST_DETAILS: self-cleavage, relative activity (ratio to wild type); higher = more cleavage; in vitro, sequencing; the parent is a self-cleaving ribozyme
Please enter MET where self-cleavage is greater than or equal to 0.6, and NOT MET where it is lower.

Completed entries (count: 2):
A13U A52U : MET
A60U A78G : NOT MET

Task: Please tell me: is the variant U127G A129G at or over 0.6 in terms of self-cleavage?
Result: MET

Task: Does the reported self-cleavage for G1U A92G fall at or above the 0.6 mark?
Result: MET

All values here come from the RNAGym collection of RNA variant scans (doi:10.7554/elife.90254).
